This collection of values is drawn from patent US8613914B2.

# targetSystem: HCV NS3-4A serine protease (full-length NS3-4A protein) (Hepatitis C virus genotype 1a (isolate 1) (HCV), UniProt P26664)
# Sequence (P26664 1027-1657): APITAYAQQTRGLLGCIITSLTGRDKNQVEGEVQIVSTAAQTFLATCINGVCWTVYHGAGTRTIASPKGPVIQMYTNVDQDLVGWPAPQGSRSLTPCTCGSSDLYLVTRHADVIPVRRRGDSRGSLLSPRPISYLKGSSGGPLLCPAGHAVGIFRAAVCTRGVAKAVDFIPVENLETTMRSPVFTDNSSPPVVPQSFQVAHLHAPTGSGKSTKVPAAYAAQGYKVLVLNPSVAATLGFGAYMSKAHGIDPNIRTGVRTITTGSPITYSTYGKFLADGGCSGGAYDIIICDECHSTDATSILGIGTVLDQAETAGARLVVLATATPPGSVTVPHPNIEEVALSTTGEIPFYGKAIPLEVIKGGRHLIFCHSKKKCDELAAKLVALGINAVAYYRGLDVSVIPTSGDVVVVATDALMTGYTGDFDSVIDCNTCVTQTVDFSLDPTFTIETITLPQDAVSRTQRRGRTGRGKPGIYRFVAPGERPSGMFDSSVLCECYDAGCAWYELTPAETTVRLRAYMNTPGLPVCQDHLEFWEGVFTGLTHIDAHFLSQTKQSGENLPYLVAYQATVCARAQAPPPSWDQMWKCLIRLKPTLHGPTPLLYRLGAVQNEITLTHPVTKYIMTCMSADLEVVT
# Sequence (P26664 1658-1711 partner): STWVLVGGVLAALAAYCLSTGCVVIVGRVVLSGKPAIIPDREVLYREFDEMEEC
# testProtocol: HCV NS3-4A protease assay
# conditionNotes: strain HCV-1, fluorogenic peptide substrate, read-out: Protease assay Ex. 12 IC50
pIC50: −log10 of the molar value.
Attribute: pIC50

{"columns": ["molecule", "pIC50"],
 "data": [
  ["CC[C@@H]1C[C@]1(NC(=O)[C@@H]1C[C@@]2(CN1C(=O)[C@@H](NC(=O)[C@@H](NC(=O)[C@@H]1CCCCN1C(C)C)C1CCCCC1)C(C)(C)C)C(C)(C)C21CCC1)C(=O)NS(=O)(=O)N(C)C1CC1 [Compound 90]", 8.19],
  ["C=C[C@@H]1C[C@]1(NC(=O)[C@@H]1C[C@@]2(CN1C(=O)[C@@H](NC(=O)[C@@H](NC(=O)[C@@H]1CCCCN1C(C)C)C1CCCCC1)C(C)(C)C)C(C)(C)C21CCC1)C(=O)NS(=O)(=O)N(C)C1CC1 [Compound 53]", 8.77]
]}
